Origin of measurements: paper PMC8081377

Below are compounds with their classification in the RSMN assay by Lab B as measured on EpiDerm™ EPI-200-MNA skin tissues.

Recorded classification in the RSMN assay by Lab B, per entry:
{"columns": ["Compound", "Observed result"],
 "data": [
  ["O=c1[nH]cc(F)c(=O)[nH]1 [5-Fluorouracil]", "negative"],
  ["CCCOC(=O)c1cc(O)c(O)c(O)c1 [Propyl gallate]", "negative"],
  ["O=C1CN(/N=C/c2ccc([N+](=O)[O-])o2)C(=O)N1 [Nitrofurantoin]", "negative"],
  ["CCc1cc(C(N)=S)ccn1 [Ethionamide]", "negative"],
  ["CCCCCl [N-Butyl chloride]", "negative"]
]}

input: Write down classification in the RSMN assay by Lab B measured for item c1ccc2c(c1)ccc1ccccc12 [Phenanthrene]
output: negative

input: Write down classification in the RSMN assay by Lab B measured for item Oc1cccc(O)c1 [Resorcinol]
output: negative

---

# Tested on: EpiDerm™ EPI-200-MNA skin tissues
# Study conditions: % VCC or % BN; lab(s) as stated in the text
Measured attribute: top/maximum dose tested, limited by excessive or strong cytotoxicity

input: Write down top/maximum dose tested, limited by excessive or strong cytotoxicity measured for item O=[N+]([O-])c1cccc2ccccc12
output: 50–80 µg/cm^2

input: Write down top/maximum dose tested, limited by excessive or strong cytotoxicity measured for item OCC(Br)CBr (centres unmarked)
output: 500–600 µg/cm^2

input: Write down top/maximum dose tested, limited by excessive or strong cytotoxicity measured for item O=[N+]([O-])c1ccc(O)cc1
output: 20–48 µg/cm^2

input: Write down top/maximum dose tested, limited by excessive or strong cytotoxicity measured for item O=C(O)Cc1ccccc1Nc1c(Cl)cccc1Cl
output: 50–80 µg/cm^2

input: Write down top/maximum dose tested, limited by excessive or strong cytotoxicity measured for item C=CCc1ccc(O)c(OC)c1
output: 80–100 µg/cm^2
